As shown below, each of these binders has a reported Kd value.
- systemUnderTest: T1, huEpCAM ECD Ag0065 (human) (UniProt P16422)
- T1 sequence: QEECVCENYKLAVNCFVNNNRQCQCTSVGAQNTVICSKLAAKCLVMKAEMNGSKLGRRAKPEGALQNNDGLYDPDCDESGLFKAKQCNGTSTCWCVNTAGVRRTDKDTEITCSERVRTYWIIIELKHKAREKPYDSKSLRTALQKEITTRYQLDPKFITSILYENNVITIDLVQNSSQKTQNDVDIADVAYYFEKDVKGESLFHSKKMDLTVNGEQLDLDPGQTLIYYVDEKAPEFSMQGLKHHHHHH
- methodDescription: SPR multi-cycle
quantityName: Kd (nM)

binder | dataValue
Ab1066 (antibody, V domains shown) VH: EVQLVESGGGLVQPGGSLRLSCAASGFTFSNYWMNWVRQAPGKGLEWVAQIRVKSENFATHYADSVKGRFTISRDDSKSTVYLQMNSLRAEDTAVYYCTLYDAFSWGQGTLVTVSS VL: DIQMTQSPSSLSASVGDRVTITCSASSSVSSGNFHWYQQKPGKAPKLLIYRTSNLASGVPSRFSGSGSGTDYTLTISSLQPEDFATYYCQQASGYPYTFGQGTKVEIK | 5.7
Ab1024 (antibody, V domains shown) VH: EVQLVESGGGLVQPGGSLRLSCAASGFTFSNYWMNWVRQAPGKGLEWVAQIRVKSENFATHYVDSVKGRFTISRDDSKSTVYLQMNSLRAEDTAVYYCTLYDGFSWGQGTLVTVSS VL: DIQMTQSPSSLSASVGDRVTITCSASSSVSSGNFHWYQQKPGKAPKLLIYRTSNLASGVPSRFSGSGSGTDYTLTISSLQPEDFATYYCQQWSGYPYTFGQGTKVEIK | 1.6
Ab1019 (antibody, V domains shown) VH: EVQLVESGGGLVQPGGSLRLSCAASGFTFSNYWMNWVRQAPGKGLEWVAQIRVKSENFATHYADSVKGRFTISRDDSKSTVYLQMNSLRAEDTAVYYCTLYDAFSWGQGTLVTVSS VL: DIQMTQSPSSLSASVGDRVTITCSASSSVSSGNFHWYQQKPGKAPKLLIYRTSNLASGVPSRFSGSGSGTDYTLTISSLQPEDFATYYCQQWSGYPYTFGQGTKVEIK | 1.8
Ab1018 (antibody, V domains shown) VH: EVQLVESGGGLVQPGGSLRLSCAASGFTFSNYWMNWVRQAPGKGLEWVAQIRVKSENFATHYADSVKGRFTISRDDSKSTVYLQMNSLRAEDTAVYYCTLYEGFSWGQGTLVTVSS VL: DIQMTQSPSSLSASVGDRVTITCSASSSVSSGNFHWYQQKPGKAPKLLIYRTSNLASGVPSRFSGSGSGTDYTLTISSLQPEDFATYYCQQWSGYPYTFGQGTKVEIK | 2.8
